# System: GT 1a replicon D168A
# method: HCV subgenomic replicon system, GT 1a D168A
# Type: cell-based
# condition label: Hepatitis C virus, GT1A
property name: EC50 (nM)

>  <mol>
Cc1cnc(C(=O)N[C@H]2CCCCC/C=C\[C@@H]3C[C@@]3(C(=O)NS(=O)(=O)C3CC3)NC(=O)[C@@H]3C[C@@H](Oc4nc5ccccc5c5ccccc45)CN3C2=O)cn1

>  <assay target>
GT 1a replicon D168A

>  <assay value>
70.4

$$$$

* * *

# Test system: NS3 protease domain from GT 1a HCV-infected subjects in replicon shuttle vector
# method: Replicon transient transfection EC50, NS3 protease domain from subjects cloned into shuttle vector, GT 1a
# Type: cell-based
# condition label: Hepatitis C virus, GT1A, 96 h, read-out: EC50 Day 4, Subject R, GT 1a, 50/100 mg dose group, Day 4 sample
# Source text: Viral RNA was isolated from the plasma of HCV-infected patients at baseline (Day 1) and Day 4 by using an automated (Abbott m2000) or manual (QIAgen QIAamp Viral RNA Mini Kit) method. Amplicons containing the NS3-4A region were generated by RT-PCR, and PCR fragments containing the first 250 amino acids of NS3 were generated in a second round of PCR. […]
pEC50: −log10 of the molar value.

>  <compound>
Cc1cnc(C(=O)N[C@H]2CCCCC/C=C\[C@@H]3C[C@@]3(C(=O)NS(=O)(=O)C3CC3)NC(=O)[C@@H]3C[C@@H](Oc4nc5ccccc5c5ccccc45)CN3C2=O)cn1 [Compound I]

>  <pEC50>
7.16

$$$$
